# credit: paper PMC7591920

For each record, write down the corresponding pKd.
molecular target: T1, mouse TEAD4(210-427) (mouse, UniProt Q62296 210-427); experiment: SPR; GST-hTEAD1 or mTEAD4 amine-coupled to a CM5 chip (10 mM MES pH 6.4), peptides as analytes; 10 mM HEPES, 150 mM NaCl, 0.05% Tween-20, pH 7.4, 20 °C, 30 µL/min; steady-state fit, 1:1 model; settings: both partners purified
T1 construct: mouse TEAD4, residues 210-427; The tag was cleaved with 3C protease only for the crystallisation; nothing is said for SPR and FP; also called mTEAD4; source: E. coli BL21 DE3 RIL, purified (His Trap, SEC)
T1 sequence (Q62296 210-427): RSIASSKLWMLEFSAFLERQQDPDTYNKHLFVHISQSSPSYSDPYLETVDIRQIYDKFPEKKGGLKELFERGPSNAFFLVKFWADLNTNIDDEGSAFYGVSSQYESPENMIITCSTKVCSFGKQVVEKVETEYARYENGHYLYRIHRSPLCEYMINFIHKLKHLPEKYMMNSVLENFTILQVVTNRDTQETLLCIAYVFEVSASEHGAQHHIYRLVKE
pKd: −log10 of the molar value. Bridge positions count the residues as written; N and C are the ends. Ends that are not written are not given here.

Query: Please report the measured pKd for Ac-SVEDHFAKALGATWLQIKAA (lactam 3-18, macrocyclic VGL4 two-helix motif 4E with one alanine; numbers count on: mouse VGL4 as in PDB 4LN0; Synthesised on Rink amide resin: C-terminal amide surmised; source: synthetic peptide) [peptide 21 (alanine scan of 4E), acetylated]
Response: < 4.00

Query: Return pKd for the following binder: Ac-SVEDHAAKALGDTWLQIKAA (lactam 3-18, macrocyclic VGL4 two-helix motif 4E with one alanine; numbers count on: mouse VGL4 as in PDB 4LN0; Synthesised on Rink amide resin: C-terminal amide surmised; source: synthetic peptide) [peptide 18 (alanine scan of 4E), acetylated]
Response: < 4.00

Query: Note down pKd recorded for Ac-SVEDAFAKALGDTWLQIKAA (lactam 3-18, macrocyclic VGL4 two-helix motif 4E with one alanine; numbers count on: mouse VGL4 as in PDB 4LN0; Synthesised on Rink amide resin: C-terminal amide surmised; source: synthetic peptide) [peptide 17 (alanine scan of 4E), acetylated]
Response: < 4.00
